Each recorded value in this set is attributed to PubChem BioAssay (Tox21).

EXPERIMENT SUMMARY: qHTS assay to identify small molecule agonists or antagonists of the thyroid stimulating hormone receptor (TSHR) signaling pathway - wild type cell line counter screen (AID 1259384)
PARTICULARS: HEK293 wild type, cAMP HTRF counter-screen; series mostly up to 92.4 µM
Records with an inconclusive call do not appear. Calls of active or inactive are those of the source. The call rests on the fitted dose curve.
OBSERVED PROPERTY: outcome

Before answering, review these 10 worked examples.
COMPOUND | outcome
CC(C)COC(=O)c1ccccc1C(=O)OCC(C)C | inactive
S=c1[nH]c2ccccc2[nH]1 | inactive
CN(C)c1ccccc1 | inactive
CC1(C)Cc2cccc(O)c2O1 | inactive
O=NN1CCOCC1 | inactive
COP(=S)(OC)Oc1ccc(S(=O)(=O)N(C)C)cc1 | inactive
CC1(C)C(C(=O)OC(C#N)c2cccc(Oc3ccccc3)c2)C1(C)C (centres undefined) | inactive
CNC(=S)S | inactive
N#CC(c1ccccc1)c1ccccc1 | inactive
CCOP(=O)(OCC)OCC | inactive

In: Entry N#Cc1c(Cl)c(Cl)c(Cl)c(C#N)c1Cl : reported outcome = ?
Out: inactive

In: Now consider O=C(O)c1nn(Cc2ccc(Cl)cc2Cl)c2ccccc12 .
Out: inactive

----------
EXPERIMENT SUMMARY: qHTS assay to identify small molecule antagonists of the estrogen receptor alpha (ER-alpha) signaling pathway using the BG1 cell line - cell viability counter screen (AID 743081);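 further: compound given together with 17beta-estradiol as the ER stimulus; nearly all actives have a fitted effect of over 45% in size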
PARTICULARS: BG1Luc4E2 viability, CellTiter-Fluor, 22 h; series mostly up to 70.3 µM
Records with an inconclusive call do not appear. Calls of active or inactive are those of the source. The call rests on the fitted dose curve; in most records, active means well fitted cell-killing curve with a large enough effect in the repeat runs; inconclusive means weak or mixed curves, or effect the other way; inactive means flat fitted curve, though single readings scatter.
OBSERVED PROPERTY: outcome

Before answering, review these 5 worked examples.
MOLECULE | outcome
CN(C)c1ccccc1 | inactive
COc1ccc(CO)cc1 | inactive
[CH3][Sn]([Cl])([Cl])[Cl] | inactive
CC(C)=CC1C(C(=O)OCN2C(=O)C3=C(CCCC3)C2=O)C1(C)C (centres undefined) | inactive
O=NN(c1ccccc1)c1ccccc1 | inactive

In: Entry COP(=S)(OC)Oc1ccc(Sc2ccc(OP(=S)(OC)OC)cc2)cc1 : reported outcome = ?
Out: inactive

----------
EXPERIMENT SUMMARY: qHTS assay to identify small molecule agonists of H2AX - cell viability counter screen (AID 1224847); further: nearly all actives have a fitted effect of over 30% in size
PARTICULARS: CHO-K1 viability, CellTiter-Glo luminescence, 3 h; series mostly up to 154 µM
Results filed as inconclusive are left out. Calls of active or inactive are those of the source. The call rests on the fitted dose curve.
The categories you may choose from are t for active, f for inactive

COMPOUND | ANSWER LABEL
CCNCC | f
Nc1ccc([N+](=O)[O-])cc1N | f
CCNc1nc(Cl)nc(NC(C)(C)C#N)n1 | f
O=[N+]([O-])c1ccc(Cl)c([N+](=O)[O-])c1 | t
Clc1cccc(C(Cl)(Cl)Cl)n1 | f

In: # outcome recorded in this test, key = O=C1CCCO1
Out: f

In: Now consider CC1=C(C(=O)Nc2ccccc2)SCCO1 .
Out: f

In: Now consider O=P(OCCCl)(OCCCl)OCCCl .
Out: f

In: Now consider CC[n+]1c(-c2ccccc2)c2cc(N)ccc2c2ccc(N)cc21 .
Out: f

In: Now consider NC(=O)CN1CCCC1=O .
Out: f

In: Now consider OC(c1ccc(Cl)cc1)(c1cncnc1)c1ccccc1Cl (stereo not given) .
Out: t

In: Now consider CCCCOCC1CO1 (stereo not given) .
Out: f

In: Now consider ClC(Cl)(Cl)c1ccccc1 .
Out: f

In: Now consider Clc1ccccc1-c1nnc(-c2ccccc2Cl)nn1 .
Out: t

----------
EXPERIMENT SUMMARY: A CellTox Green Cytotoxicity Assay to monitor cytotoxicity in HEK293 cells - 32 hour (AID 1224881); further: nearly all actives have a fitted effect of over 40% in size
PARTICULARS: CellTox Green fluorescence; series mostly up to 76.8 µM
Results filed as inconclusive are left out. Active and inactive are the calls of the source. Calls come from the whole dose curve; as a rule, active = well fitted activation curve with a large enough effect in the repeat runs; inconclusive = weak or mixed curves; inactive = flat fitted curve, though single readings scatter.
OBSERVED PROPERTY: outcome

Before answering, review these 5 worked examples.
COMPOUND | OBSERVED PROPERTY | RESULT
O=C1CCCO1 | outcome | inactive
[Cl-].[Cl-].[Cl-].[Fe+3] | outcome | inactive
C[C@]12CC[C@H]3[C@@H](CCC4=CC(=O)CC[C@@H]43)[C@@H]1CC[C@@H]2O | outcome | inactive
[CH3][Sn]([Cl])([Cl])[Cl] | outcome | inactive
CCOP(=S)(OCC)SCSC(C)(C)C | outcome | inactive

In: Entry Nc1ccc([N+](=O)[O-])cc1N : reported outcome = ?
Out: inactive

In: Now consider CC(C)=CC1C(C(=O)OCc2cccc(Oc3ccccc3)c2)C1(C)C (centres undefined) .
Out: inactive

In: Now consider CCNc1nc(Cl)nc(NC(C)(C)C#N)n1 .
Out: inactive

In: Now consider COP(=S)(OC)Oc1ccc(S(=O)(=O)N(C)C)cc1 .
Out: inactive

----------
MEASUREMENT TARGET: Progesterone receptor (Homo sapiens) (UniProt P06401)
Sequence (P06401 whole entry, looked up): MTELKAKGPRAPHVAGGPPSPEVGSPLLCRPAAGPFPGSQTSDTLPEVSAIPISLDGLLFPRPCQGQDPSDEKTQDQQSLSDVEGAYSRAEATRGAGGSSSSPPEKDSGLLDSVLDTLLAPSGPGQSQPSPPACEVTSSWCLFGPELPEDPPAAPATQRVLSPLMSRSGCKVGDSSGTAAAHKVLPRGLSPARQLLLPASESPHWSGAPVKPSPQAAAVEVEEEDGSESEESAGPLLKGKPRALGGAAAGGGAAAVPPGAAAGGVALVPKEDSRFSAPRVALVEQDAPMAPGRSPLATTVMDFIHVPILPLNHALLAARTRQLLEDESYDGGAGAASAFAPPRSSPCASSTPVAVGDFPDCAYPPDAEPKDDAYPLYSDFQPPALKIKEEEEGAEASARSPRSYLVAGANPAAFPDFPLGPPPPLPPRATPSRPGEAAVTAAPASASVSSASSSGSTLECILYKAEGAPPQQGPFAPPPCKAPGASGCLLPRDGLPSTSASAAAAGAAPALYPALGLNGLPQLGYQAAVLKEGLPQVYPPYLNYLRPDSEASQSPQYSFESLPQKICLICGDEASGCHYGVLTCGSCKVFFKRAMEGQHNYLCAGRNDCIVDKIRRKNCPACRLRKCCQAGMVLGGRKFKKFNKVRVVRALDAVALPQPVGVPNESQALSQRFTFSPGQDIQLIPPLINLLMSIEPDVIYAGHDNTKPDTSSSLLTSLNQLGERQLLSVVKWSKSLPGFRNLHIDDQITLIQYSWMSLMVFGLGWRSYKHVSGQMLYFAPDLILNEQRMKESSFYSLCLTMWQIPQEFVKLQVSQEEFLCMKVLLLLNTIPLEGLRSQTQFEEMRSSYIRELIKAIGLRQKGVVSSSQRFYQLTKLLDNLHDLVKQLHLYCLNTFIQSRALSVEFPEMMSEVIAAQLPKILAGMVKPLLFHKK
EXPERIMENT SUMMARY: qHTS assay to identify small molecule antagonists of the progesterone receptor (PR) signaling pathway (AID 1346795); further: potency means the concentration at half of the fitted maximal effect
PARTICULARS: PR-UAS-bla HEK293T, beta-lactamase FRET ratio, 16 h; series mostly up to 92.4 µM
Results filed as inconclusive are left out. Active and inactive are the calls of the source. Calls come from the whole dose curve; as a rule, active = well fitted inhibition curve with a large enough effect in the signal ratio in the repeat runs (not every such curve was filed as active); inconclusive = weak or mixed curves; inactive = flat fitted curve, though single readings scatter; the % refers to the signal ratio.
OBSERVED PROPERTY: Potency

Before answering, review these 10 worked examples.
COMPOUND | OBSERVED PROPERTY | RESULT
CC1(C)Cc2cccc(O)c2O1 | Potency | inactive
CCOC(=O)c1ccccc1N | Potency | inactive
COc1ccc(CO)cc1 | Potency | inactive
O=C1C(Cl)=C(Cl)C(=O)c2ccccc21 | Potency | 48.6 µM (active)
O=[N+]([O-])c1ccc(Cl)c([N+](=O)[O-])c1 | Potency | 24.3 µM (active)
ClCC(Cl)CCl | Potency | inactive
COc1ccc(O)c(C(C)(C)C)c1 | Potency | inactive
CC(C)COC(=O)c1ccccc1C(=O)OCC(C)C | Potency | inactive
CNC(=S)S | Potency | inactive
CCCCOC(=O)COC(=O)c1ccccc1C(=O)OCCCC | Potency | inactive

In: Entry CC1(C)C(C(=O)OC(C#N)c2cccc(Oc3ccccc3)c2)C1(C)C (configuration not stated) : reported Potency = ?
Out: 24.5 µM (active)

In: Now consider CCCCOCCOC(C)=O .
Out: inactive

In: Now consider Oc1ccc(Cl)cc1Cl .
Out: inactive

In: Now consider O=C(O)c1nn(Cc2ccc(Cl)cc2Cl)c2ccccc12 .
Out: inactive

----------
EXPERIMENT SUMMARY: qHTS assay to identify small molecule agonists of the estrogen receptor beta (ER-beta) signaling pathway - cell viability counter screen (AID 1259380); further: nearly all actives have a fitted effect of over 30% in size
PARTICULARS: ER-beta-bla HEK293T viability, CellTiter-Glo luminescence, 16 h; series mostly up to 92.4 µM
Results filed as inconclusive are left out. Calls of active or inactive are those of the source. Calls follow the shape of the dose curve; as a rule, active = well fitted cell-killing curve with a large enough effect in the repeat runs; inconclusive = weak or mixed curves, or effect the other way; inactive = flat fitted curve, though single readings scatter.
The categories you may choose from are active, inactive

In: # outcome recorded in this test, key = CCCCSP(=O)(SCCCC)SCCCC
Out: inactive

In: Now consider CCCCCCCCCCCCCl .
Out: inactive

In: Now consider CC1=C(C(=O)Nc2ccccc2)SCCO1 .
Out: inactive

In: Now consider CC(C)COC(=O)c1ccccc1C(=O)OCC(C)C .
Out: inactive

In: Now consider O=C1CCCO1 .
Out: inactive

In: Now consider ClCc1ccccn1 .
Out: inactive

In: Now consider CCOS(=O)(=O)OCC .
Out: inactive

In: Now consider COP(=S)(OC)Oc1ccc(S(=O)(=O)N(C)C)cc1 .
Out: inactive

In: Now consider CC(C)Nc1nc(Cl)nc(NC(C)C)n1 .
Out: inactive

In: Now consider CC1(C)Cc2cccc(O)c2O1 .
Out: inactive

In: Now consider CN(C)c1nc(=O)n(C2CCCCC2)c(=O)n1C .
Out: inactive

In: Now consider CCCCOC(=O)COC(=O)c1ccccc1C(=O)OCCCC .
Out: inactive

In: Now consider OC(c1ccc(Cl)cc1)(c1cncnc1)c1ccccc1Cl (centres undefined) .
Out: active

In: Now consider CNC(=S)S .
Out: inactive

In: Now consider N#CCCCCC#N .
Out: inactive

In: Now consider CCCCOCC1CO1 (centres undefined) .
Out: inactive

In: Now consider C[N+](C)(C)C .
Out: inactive

In: Now consider O=NN(c1ccccc1)c1ccccc1 .
Out: inactive

In: Now consider Oc1ccc(Cl)cc1Cl .
Out: inactive

In: Now consider O=[N+]([O-])/N=C1\NCCN1Cc1ccc(Cl)nc1 .
Out: inactive
